- assayExplanation: soluble fraction after stress (log2 fold change); higher = more stays soluble; pooled small domains, quantitative proteomics
- measurementConditions: stress: 50 degC
measuredQuantity: soluble fraction (log2)
# print the numeric value only

Examples with their reported soluble fraction (log2) follow.
{"primarySequence": "HMVPISGADFEKLSDYILQKAGAGSIQVKELLAGLKGMHEKNLWKAIDYLLAEEKIRIDKGGNISVK", "soluble fraction (log2)": -0.00539}
{"primarySequence": "HMSHGFFELKTTQKEALIKLLDSHPNFTHTKTEADLTTAFLKLPMDAEQFNKLLFTNGIVLSHLVKRK", "soluble fraction (log2)": -0.668}
{"primarySequence": "HMRRRKPLVSYEYGTRVYAPSEGEPRYRVVATDADGQRVFAKFSSEEAARHRAREIEGRLATS", "soluble fraction (log2)": -0.00468}

Exercise: Return soluble fraction (log2) for the following sequence: "HMANPMFAEIKKVQKQLNEMGYQAGPADGLWGNKTENAVKLLLSDNNLKWDGTFDQNEIKIIEEIFLSND"
Key: -0.256

Exercise: Return soluble fraction (log2) for the following sequence: "HMQPQYSVLFSNIEEKDGGSIITLLQQGNVPYKVENGGTTILVPANRANELRLTLAAQGLPK"
Key: -0.0124

Exercise: Return soluble fraction (log2) for the following sequence: "HMNAAFMKAERLLAILNILLTGKRVSSTELAKKLEVSVRTVYRDVEALSEAGFPVYATMGRDGGFGLIEGF"
Key: -1.95

Exercise: Return soluble fraction (log2) for the following sequence: "HMTTSNPMNVTSAEAAFDNGTDRLNAFISGRTTSEERSTYFPLFVRETKEDFLRAVGRFNEYIANHG"
Key: 0.0364

====

- assayExplanation: soluble fraction after stress (log2 fold change); higher = more stays soluble; pooled small domains, quantitative proteomics
- measurementConditions: stress: 50 degC
Parameter soluble fraction (log2): see the listing below.
# print the numeric value only

{"primarySequence": "HMEITRDTVIQWLEAERRSQTWLSKQLGVSVQAVSNWLREKNPQTISASAQITIRALMEEDAAK", "soluble fraction (log2)": -0.42}
{"primarySequence": "HMEGMSIYVTVNGDMVHLTGKMSYVFVDVFEHIDFDLSKPQGSGIVTKLNGRDAQYMEEIRSGDMIEIYWR", "soluble fraction (log2)": -0.133}
{"primarySequence": "HMNPNEVQIPDLVNKTEEEAEQILKDLKLKLVVKSEEYDENIEKGKIISQDPTYKENYKIKEHSEISVIIS", "soluble fraction (log2)": 0.214}

Turning now to a further sequence:
Exercise: Return soluble fraction (log2) for the following sequence: "HMNSEELFLRRIAQELIDQHGKDLHRIIVVLPSNRSKVFLKKFLFEILGSAFLTPQLMLLPQFVKSIV"
Key: -0.282

====

Parameter soluble fraction (log2): see the listing below.
- assayExplanation: soluble fraction after stress (log2 fold change); higher = more stays soluble; pooled small domains, quantitative proteomics
- measurementConditions: stress: 50 degC
# print the numeric value only

Examples with their reported soluble fraction (log2) follow.
{"primarySequence": "HMVKLDDLTGQDKATAEATITNSGLKYSEQQEFSDEVEAGKVIRTDPGAGTSSLKAGDTVTVYVSRGPEN", "soluble fraction (log2)": -0.0778}
{"primarySequence": "HMVQIIQLQGTDKRLYELVAPLVMNPEILKQNYNYPFRTSEDFVWFVAVDKKKVIGFIPVEEKKKEYVI", "soluble fraction (log2)": -0.0678}
{"primarySequence": "HMPQTNIYPNPAFDKLFVSNLENETNFKIMDLFGRTIINSKTKGEISISELKSGIYIIEINNFRQKFVK", "soluble fraction (log2)": -0.839}
{"primarySequence": "HMSASNSIDFANRMIYNKNQVAVFNFGKHMGRPVLEVLKSDPSYYDWMMKGDFPMDTKRKLTEIKLQGF", "soluble fraction (log2)": -0.755}
{"primarySequence": "HMEKSSALRAKEAFMALYHDGKFKPGTKIPSESNMAELLGVSRETWRKALALLRGDGVLYSKHGSGTYLLE", "soluble fraction (log2)": 0.11}
{"primarySequence": "HMATVIDVATTLGRPITDPDEQRQVLNWIGKTERIISARLGDLAALDRQILADVISEVVARRARN", "soluble fraction (log2)": -0.4}

Exercise: Return soluble fraction (log2) for the following sequence: "HMGSVNDNVQKLTSQIGETTETGDTITPEDVELYKKMVDPLSTMAQKLEAAEILKLKGIIGSNGIIV"
Key: -0.0442

Exercise: Return soluble fraction (log2) for the following sequence: "HMNKPLFVYPNPVHQGKINLSKATNFMVVDLLGQTVNKTNYGKDFSIDNLPNGVYFIKTTEGEIIKFMK"
Key: -0.696

Exercise: Return soluble fraction (log2) for the following sequence: "HMAQDIEQLEKAVSFYTRMDPAAAALSITNLDQKTAVNILMRMKDKQASAVLESMTAERSSELIDSIARK"
Key: 0.00388

Exercise: Return soluble fraction (log2) for the following sequence: "HMNGTGSVYKLSGKRRNPWRAVVTNGWAYNEEKGKLVQNRVTIGYYHTRDEAIQAIANYNSSP"
Key: -1.52

Exercise: Return soluble fraction (log2) for the following sequence: "HMSFGWETLEGKEGVTDTDLHPSGWVKVGDEKIFVVSQGEFLGKGTDIVVVSVDGNRVVVKELI"
Key: -0.694

Exercise: Return soluble fraction (log2) for the following sequence: "HMSYPFSEDALKEKIREYLKHNRSINRKVLEAEFHIRKQTALNWLKKLEKSGFLIKEGSRNAPVYFLAE"
Key: -0.832

====

- assayExplanation: soluble fraction after stress (log2 fold change); higher = more stays soluble; pooled small domains, quantitative proteomics
- measurementConditions: stress: 50 degC
measuredQuantity: soluble fraction (log2)
# print the numeric value only

{"primarySequence": "HMEDPKLAQLTEQERKILDLIADGLTNRQIAEKMFLAEKTVKNYVSTILAKMGMSNRSEAAAYVARLEAG", "measuredNumber": 0.0787}
{"primarySequence": "HMEAISIYPNPTDNELHLSTSVQEVRIYNMYGIEVTRAANTDRLAVSHLPKGVYLVHADGAVLKMIK", "measuredNumber": -1.26}
{"primarySequence": "HMIAWNFDTMKESLSEMERVDYQEFIKAFLSLELSISDRTILNQVYQDYMDEDDLSLISDELRV", "measuredNumber": 0.0819}

Turning now to a further sequence:
Exercise: Return soluble fraction (log2) for the following sequence: "HMSTGGDLTQRERELLGLMARGLSNQEISKRLTIAMPTVKFHVTNILAKLHADNRTEAVLVALKNKLVAL"
Key: -0.748

====

- assayExplanation: soluble fraction after stress (log2 fold change); higher = more stays soluble; pooled small domains, quantitative proteomics
- measurementConditions: stress: 50 degC
measuredQuantity: soluble fraction (log2)
# print the numeric value only

Exercise: Return soluble fraction (log2) for the following sequence: "HMEWEVHSVTVTPELSGERLDVAATALLSQFSRALVQRWIDANELTLNERPVKAKSKVRVGDLIAVKAK"
Key: -0.874

Exercise: Return soluble fraction (log2) for the following sequence: "HMSKIVPVAYSQFLKDVKNGNVSQVEIRGNNIKGINNNGSSFSTYAPNDLSLIDKLEKSNVEIIVMPLE"
Key: -0.125

Exercise: Return soluble fraction (log2) for the following sequence: "HMEYSNLGEALRRLSEIDLQIILLKYSHGFSIKEISKILDIKEVNLYKRNKRALNKLKKILAEMEVLSN"
Key: -0.397

Exercise: Return soluble fraction (log2) for the following sequence: "HMQNKFLDIVGEIEVKAVDYYLLKDTSGLVIKFPKNLVFANGLKIADNKIGLTVSLYGAWVHEET"
Key: -1.17

Exercise: Return soluble fraction (log2) for the following sequence: "HMGYNDQEVKSNLITLLSTSKTGLSGVEISAQLGINRVTMTKFLNVFAAEGIIKQKNIGNLNLWLVEEGTE"
Key: -1.58

Exercise: Return soluble fraction (log2) for the following sequence: "HMEWLENIKKLKKEKGLTNESLSEKSGISVGTLNKLLSGATTDPKLSTLRPLADALEVSLDELLAI"
Key: 0.166

Exercise: Return soluble fraction (log2) for the following sequence: "HMKKSRLHSVLEEIPGIGEKRRKILIKHFGTVEAIKKSSLEELARIKGMNRRAAQNVLEYLK"
Key: -0.0583

Exercise: Return soluble fraction (log2) for the following sequence: "HMREGIQLGDPVRVIRDPLFGKIGAVSGLPSELRAIPTESEVRVLEVRFPDGTTTVVPRANIEVIEG"
Key: 0.364

Exercise: Return soluble fraction (log2) for the following sequence: "HMTANTLDLTYSQFLENVKNGSVNDVTIRGNNVSGNFSDGRKFKTYAVNDPTLVEKLTKMGVNISAAPL"
Key: 0.267

Exercise: Return soluble fraction (log2) for the following sequence: "HMTTVTVGSKVRVKAGATFSDGAKPFAEVYNTVYDVQLLSHNGKEARIGIGDQWTGWIYISDLYLANQPAP"
Key: -0.102

Exercise: Return soluble fraction (log2) for the following sequence: "HMEQRREEFILLAKELLEKELRKQNLEVHENLKPDVLNDVAKRLGMVSMDDLLAAVGDGKITPGTVVSKIV"
Key: 0.064

Exercise: Return soluble fraction (log2) for the following sequence: "HMSKDQKKFFIEIVSIRGFGSQIGISILNKLSIPQIINAIKTQNKKEISSIPGIGQKMTERLILELNNKFK"
Key: -0.0747

Exercise: Return soluble fraction (log2) for the following sequence: "HMTLAAATESREYLADLARRLDAADHGDKTRIKAEAAGLLGWSMATLHARLARDVGWTSGRK"
Key: -0.0944

Exercise: Return soluble fraction (log2) for the following sequence: "HMVTVNAFGKSGPEPAAMTKEALAKGADEVRVIVDSPTAAASVRDFLIGAGLRVQLQDDEGQLIVVGEKK"
Key: 0.215
